Cited source: paper PMC6753193

Quick reference: pIC50 of the listed items.
# system.tested: PP1:cdNIPP1 RATA (Homo sapiens)
# Sequence (P62136 whole entry, looked up): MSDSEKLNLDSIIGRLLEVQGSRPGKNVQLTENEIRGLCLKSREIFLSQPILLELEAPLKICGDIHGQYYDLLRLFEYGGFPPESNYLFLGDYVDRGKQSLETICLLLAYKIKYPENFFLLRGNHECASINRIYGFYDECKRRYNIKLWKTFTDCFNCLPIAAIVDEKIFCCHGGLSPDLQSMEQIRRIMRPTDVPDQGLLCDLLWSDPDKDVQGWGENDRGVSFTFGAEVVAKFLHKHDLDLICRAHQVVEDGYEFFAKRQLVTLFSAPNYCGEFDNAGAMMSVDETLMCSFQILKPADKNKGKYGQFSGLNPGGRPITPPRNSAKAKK
pIC50: −log10 of the molar value.

# molecule, pIC50
rows = [
    ("COc1ccc(C=C2CCc3c2nc2ccccc2c3C(=O)OC(C)C(=O)NC2CC2)cc1OC (centres unmarked) [1E7-07]", "< 4.70"),
    ("CCNC(=O)NC(=O)C(C)OC(=O)c1c2c(nc3ccccc13)/C(=C\\c1ccc(OC)c(OC)c1)CC2 (centres unmarked) [1E7-03]", "< 4.70"),
]

---

Items are presented alongside their recorded IC50.
# system.tested: PP1 MUT:cdNIPP1 (Homo sapiens, UniProt P62136, A299E/G274E/L73Y/Y70W)
# Sequence (P62136 whole entry Y70W/L73Y/G274E/A299E, looked up): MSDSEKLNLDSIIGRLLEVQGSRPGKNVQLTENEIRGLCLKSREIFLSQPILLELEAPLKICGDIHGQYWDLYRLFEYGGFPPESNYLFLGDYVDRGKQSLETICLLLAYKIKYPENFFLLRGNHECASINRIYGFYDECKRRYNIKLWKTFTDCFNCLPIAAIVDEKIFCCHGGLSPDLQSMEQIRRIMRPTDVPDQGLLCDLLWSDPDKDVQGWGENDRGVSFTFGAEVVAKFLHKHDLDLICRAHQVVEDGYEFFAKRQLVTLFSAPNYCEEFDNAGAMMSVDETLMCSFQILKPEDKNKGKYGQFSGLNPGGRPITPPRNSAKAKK
# method.summary: cell-based

# compound, IC50 [µM]
measured = [
    ("COc1ccc(C=C2CCc3c2nc2ccccc2c3C(=O)OC(C)C(=O)NC2CC2)cc1OC (centres unmarked)", 4.5),
    ("CCNC(=O)NC(=O)C(C)OC(=O)c1c2c(nc3ccccc13)/C(=C\\c1ccc(OC)c(OC)c1)CC2 (centres unmarked)", 2.7),
]

---

# system.tested: WT PP1 (Homo sapiens)

# molecule, Kd / nM
measured = [
    ("COc1ccc(C=C2CCc3c2nc2ccccc2c3C(=O)OC(C)C(=O)NC2CC2)cc1OC (stereo not shown) [1E7-07]", 661),
]

---

# method.summary: in vitro
# experimental.parameters: human
Recorded CC50 for the following molecules

# molecule, CC50
data = [
    ("CCNC(=O)NC(=O)C(C)OC(=O)c1c2c(nc3ccccc13)/C(=C\\c1ccc(OC)c(OC)c1)CC2 (centres unmarked)", "> 300 µM"),
    ("COc1ccc(C=C2CCc3c2nc2ccccc2c3C(=O)OC(C)C(=O)NC2CC2)cc1OC (centres unmarked)", "> 300 µM"),
]

---

pIC50: −log10 of the molar value.
PP1:cdNIPP1 (Homo sapiens, UniProt P62136) measurements of pIC50, listed per entry.
Sequence (P62136 whole entry, looked up): as the sequence (P62136 whole entry Y70W/L73Y/G274E/A299E, looked up) above, with W70Y, Y73L, E274G, E299A counted along it
measurement.name: pIC50

# molecule, measured.value
data = [
    ("CCNC(=O)NC(=O)C(C)OC(=O)c1c2c(nc3ccccc13)/C(=C\\c1ccc(OC)c(OC)c1)CC2 (centres unmarked)", 5.82),
    ("COc1ccc(C=C2CCc3c2nc2ccccc2c3C(=O)OC(C)C(=O)NC2CC2)cc1OC (centres unmarked)", 5.43),
]
